# Tested on: MRC-5 cells
# measurementProtocol: Toxicity testing: cell viability, Alamar Blue HS
# conditionSet: read-out: MRC-5 CC50; uninfected MRC-5 cells, 72 hours post-compound treatment
assayMetric: CC50

Query block: Query: CC50; subject: `COc1c(CNC(=O)c2cc(C3CC3)nn2C)cccc1OCc1ccc(CN2CCN(S(=O)(=O)CC(C)C)CC2)cc1`
Result block: > 5 µM
